Target system: T1, recombinant human IL4Rα-his protein (in house made) (human, UniProt P24394 26-232, limits assumed)
T1 construct: also called Human IL4Ra-his
Assay text: SPR (Biacore), antibody captured, IL4Rα-his flowed
pKd: −log10 of the molar value.
# maps each entry to its pKd

Example binders with recorded pKd:
Enquiry: Field request: pKd | item: huC2C1A1A1-V5 (antibody, human IgG4 S228P, kappa, V domains shown, Humanized, human IgG4/kappa) VH: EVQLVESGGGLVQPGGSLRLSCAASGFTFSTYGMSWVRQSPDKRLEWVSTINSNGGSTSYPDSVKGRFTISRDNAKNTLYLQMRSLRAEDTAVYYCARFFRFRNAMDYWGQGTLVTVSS VL: DIQMTQSPSSLSASVGDRVTITCRTSENIYSYLAWYQQKPGKAPKLLIYNAKTLAEGVPSRFSGSGSGTDFTLTISSLQPEDFATYYCQHYYGPPTWTFGQGTKVEIKR
Return: 10.55

Enquiry: Can you share its pKd? I mean this binder: huC2C1A1A1-V15 (antibody, human IgG4, V domains shown, Humanized, human IgG4/kappa) VH: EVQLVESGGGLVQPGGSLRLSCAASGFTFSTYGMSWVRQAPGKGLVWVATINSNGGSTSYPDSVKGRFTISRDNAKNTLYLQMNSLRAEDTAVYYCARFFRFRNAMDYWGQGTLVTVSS VL: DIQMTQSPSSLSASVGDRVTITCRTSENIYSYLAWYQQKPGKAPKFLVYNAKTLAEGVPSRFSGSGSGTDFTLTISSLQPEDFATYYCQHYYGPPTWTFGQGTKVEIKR
Return: > 10.36

Here's the next entry for you.
Enquiry: // returns reported pKd for input huC2C1A1A1-V11 (antibody, human IgG4, V domains shown, Humanized, human IgG4/kappa) VH: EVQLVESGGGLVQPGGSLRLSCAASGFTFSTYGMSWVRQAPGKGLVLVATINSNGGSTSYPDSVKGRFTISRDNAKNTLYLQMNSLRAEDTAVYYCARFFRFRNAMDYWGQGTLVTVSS VL: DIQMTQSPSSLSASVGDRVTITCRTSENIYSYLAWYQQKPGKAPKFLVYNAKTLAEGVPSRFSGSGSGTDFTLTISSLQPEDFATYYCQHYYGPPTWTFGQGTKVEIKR
Return: > 10.52
